biological target: T1, Soluble heterodimeric CD3 protein (hCD3-epsilon/hCD3-delta) with either a human Fc tag (hFcΔAdp/hFc) or a … (human, UniProt P07766 23-126; P04234 22-105); assay: SPR Biacore 25C antigen-capture
T1 construct: also called hCD3ε/δ; not shown: Fc tag: human (hFcΔAdp/hFc)
T1 sequence (P07766 23-126 limits assumed, stated change not applied, chain 1 of 2): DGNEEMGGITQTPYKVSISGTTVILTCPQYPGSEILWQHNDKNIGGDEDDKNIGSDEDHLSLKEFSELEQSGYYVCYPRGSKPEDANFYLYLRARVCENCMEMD
T1 sequence (P04234 22-105 limits assumed, stated change not applied, chain 2 of 2): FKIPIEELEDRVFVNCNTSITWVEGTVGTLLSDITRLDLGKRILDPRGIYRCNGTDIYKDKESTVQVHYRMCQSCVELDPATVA
Measured koff values are reported for all entries that follow.
Give just the number in s⁻¹; leave the unit off.

* H2M2775N (antibody, mouse IgG2, V domains shown, H2M: mouse IgG2 Fc, human variable regions; divalent) VH: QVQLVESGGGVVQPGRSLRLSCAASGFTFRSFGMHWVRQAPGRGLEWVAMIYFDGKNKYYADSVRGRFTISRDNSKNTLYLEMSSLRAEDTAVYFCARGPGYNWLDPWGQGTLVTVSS VL: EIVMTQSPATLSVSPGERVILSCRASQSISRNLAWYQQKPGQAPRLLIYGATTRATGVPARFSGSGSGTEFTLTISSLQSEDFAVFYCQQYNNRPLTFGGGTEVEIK | 0.000216
* H1H5781P (antibody, human IgG1, V domains shown, H1H: human IgG1 Fc; divalent) VH: EVQLVESGGGLVQPGRSLRLSCAASGFTFDDFTMHWVRQAPGKGLEWVSDISWNSGSIDYADSVKGRFTISRDNARNSLFLQMSSLRTEDTASYYCIKDKSGYGSYNYGLDVWGQGTTVTVSS VL: EIVLTQSPGTLSLSPGDRATLSCRASQSVSSIYLAWYQQKPGQAPRLLIHGASTRATGIPDRFSGSGSGTDFTLTISRLEPEDFALYYCHQRVSSPYTFGQGTKLEIK | 0.000268

Note: attention shifts to another entry.
Hello, please tell me recorded koff for this one: H2M2711N (antibody, V domains shown, H2M: mouse IgG2 Fc, human variable regions; divalent) VH: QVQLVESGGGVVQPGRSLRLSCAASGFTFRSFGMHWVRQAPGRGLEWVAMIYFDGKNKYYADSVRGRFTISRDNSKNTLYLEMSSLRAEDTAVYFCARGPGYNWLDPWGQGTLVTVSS VL: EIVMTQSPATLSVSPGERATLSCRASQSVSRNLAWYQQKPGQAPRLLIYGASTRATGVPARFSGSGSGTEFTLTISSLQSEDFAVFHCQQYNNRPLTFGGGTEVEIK
0.00024

# credit: patent US20190127480A1
